test system: 324938-238-R-J1-PDC complex spheroid growth, % test/control; assay: Anticancer human tumor 324938-238-R-J1-PDC patient-derived bladder carcinoma cell line growth inhibition [AhR]; settings: curve of first compound; second compound 1 µM;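 note: spheroids exposed to agents for seven days before viability read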
pIC50: −log10 of the molar value.
measurementName: pIC50

In the examples that follow, each entry is paired with its recorded pIC50.
query: Please report the measured pIC50 for CC1(C)CCC(CN2CCN(c3ccc(C(=O)NS(=O)(=O)c4ccc(NCC5CCOCC5)c([N+](=O)[O-])c4)c(Oc4cnc5[nH]ccc5c4)c3)CC2)=C(c2ccc(Cl)cc2)C1 + Cc1ccccc1N=Nc1ccc(NC(=O)c2ccnn2C)c(C)c1
result: 5.06

query: Please report the measured pIC50 for CC[C@@]1(O)C(=O)OCc2c1cc1n(c2=O)Cc2cc3c(CN(C)C)c(O)ccc3nc2-1 + CC(CO)NC(=O)c1cc(-c2ccc(Cl)cc2)nn(-c2cnn(C)c2)c1=O
result: 7.66

query: Please report the measured pIC50 for CC1COCCN1c1cc(C2(S(C)(=N)=O)CC2)nc(-c2ccnc3[nH]ccc23)n1 (centres undefined) + Cc1ccccc1N=Nc1ccc(NC(=O)c2ccnn2C)c(C)c1
result: 5.41

query: Please report the measured pIC50 for O=C(C=Cc1cccc(S(=O)(=O)Nc2ccccc2)c1)NO + Cc1ccccc1N=Nc1ccc(NC(=O)c2ccnn2C)c(C)c1
result: 5.51

query: Please report the measured pIC50 for Nc1ccccc1NC(=O)c1ccc(CNC(=O)OCc2cccnc2)cc1 + Cc1cncc(-c2nc(NCCc3c[nH]c4ccccc34)c3ncn(C(C)C)c3n2)c1
result: 5.46

a = CC(C)CC(NC(=O)C(Cc1ccccc1)NC(=O)c1cnccn1)B(O)O (centres undefined) + Cc1ccccc1N=Nc1ccc(NC(=O)c2ccnn2C)c(C)c1
b = CC1COCCN1c1cc(-c2ccnn2C)c2ccnc(-c3ccn[nH]3)c2n1 (centres undefined) + CC(CO)NC(=O)c1cc(-c2ccc(Cl)cc2)nn(-c2cnn(C)c2)c1=O
c = COc1cc(C2c3cc4c(cc3C(OC3OC5COC(C)OC5C(O)C3O)C3COC(=O)C23)OCO4)cc(OC)c1O (centres undefined) + CC(CO)NC(=O)c1cc(-c2ccc(Cl)cc2)nn(-c2cnn(C)c2)c1=O
query: # desc sort on pIC50 across 3 molecules Reply format: the labels, ordered as requested.
result: a, b, c
(a: 8.32, b: 7.17, c: 6.36)

1 = COc1cc(Nc2ncc3c(n2)-c2ccc(Cl)cc2C(c2c(F)cccc2OC)=NC3)ccc1C(=O)O + CC(CO)NC(=O)c1cc(-c2ccc(Cl)cc2)nn(-c2cnn(C)c2)c1=O
2 = Nc1ccccc1NC(=O)c1ccc(CNC(=O)OCc2cccnc2)cc1 + Cc1ccccc1N=Nc1ccc(NC(=O)c2ccnn2C)c(C)c1
query: In the pair 1 and 2 , the larger recorded pIC50 belongs to which? Could you answer with the label of the item you picked?
result: 1
(1: 7.14, 2: 5.42)

P = O=C(C=Cc1cccc(S(=O)(=O)Nc2ccccc2)c1)NO + CC(CO)NC(=O)c1cc(-c2ccc(Cl)cc2)nn(-c2cnn(C)c2)c1=O
Q = NS(=O)(=O)OCC1CC(n2ccc3c(NC4CCc5ccccc54)ncnc32)CC1O (centres undefined) + CC(CO)NC(=O)c1cc(-c2ccc(Cl)cc2)nn(-c2cnn(C)c2)c1=O
query: In the pair P and Q , the larger recorded pIC50 belongs to which? Could you answer with the label of the item you picked?
result: Q

a = O=C(C=Cn1cnc(-c2cc(C(F)(F)F)cc(C(F)(F)F)c2)n1)NNc1cnccn1 + CC(CO)NC(=O)c1cc(-c2ccc(Cl)cc2)nn(-c2cnn(C)c2)c1=O
b = NS(=O)(=O)OCC1CC(n2ccc3c(NC4CCc5ccccc54)ncnc32)CC1O (centres undefined) + Cc1cncc(-c2nc(NCCc3c[nH]c4ccccc34)c3ncn(C(C)C)c3n2)c1
query: Hi, I'm comparing two records. Which one has the lower pIC50, a or b ? Could you answer with the label of the item you picked?
result: b
(b: 5.53, a: 6.87)
